Can you tell me No of serum samples >30% inhibition (30% CCP) without SCP (serum samples) for the items I'm about to list?
Target: pre-existing anti-drug antibodies (ADA) present in human sera
Experiment: pre-existing ADA ELISA, scFv coated, human sera unspiked vs spiked
Just the number, please.

Challenge: Form field: reported No of serum samples >30% inhibition (30% CCP) without SCP (serum samples) of PRO2941 (scFv 54-21-H03-sc01_(T146K)) (scFv, PRO1922 variant; VH substitution, AHo numbering; also called PRO1922 T146K) scFv: DIQMTQSPSSLSASVGDRVTITCQASESIYSSLAWYQQKPGKAPKLLIYLASTLASGVPSRFSGSGSGTDFTLTISSLQPEDFATYYCQSTDYTTSTHRNSFGTGTKVTVLGGGGGSGGGGSGGGGSGGGGSEVQLVESGGGLVQPGGSLRLSCAASGFSFSTTYYMCWVRQAPGKGLEWIGCTNTASSVRTYYATWAKGRFTISRDNSKNTVYLQMNSLRAEDTAVYYCARDMGFADYALNLWGQGTLVKVSS
Response given: 0

Challenge: For PRO2936 (scFv 54-21-H03-sc01_(T101S, T146Q)) (scFv, PRO1922 variant; VH substitutions, AHo numbering; also called PRO1922 T101S-T146Q) scFv: DIQMTQSPSSLSASVGDRVTITCQASESIYSSLAWYQQKPGKAPKLLIYLASTLASGVPSRFSGSGSGTDFTLTISSLQPEDFATYYCQSTDYTTSTHRNSFGTGTKVTVLGGGGGSGGGGSGGGGSGGGGSEVQLVESGGGLVQPGGSLRLSCAASGFSFSTTYYMCWVRQAPGKGLEWIGCTNTASSVRTYYATWAKGRFTISRDNSKNTVYLQMNSLRAEDSAVYYCARDMGFADYALNLWGQGTLVQVSS then?
Response given: 4

Challenge: For PRO3309 (scFv 37-20-B03-sc09.1_(L12R, T101S, L144A, T146Q)) (scFv, PRO2230 variant; VH substitutions, AHo numbering; also called PRO2230 L12R-T101S-L144A-T146Q) scFv: DIQMTQSPASLSASVGDRVTITCQASQSIGTYLAWYQQKPGKPPKLLIYRAFILASGVPSRFSGSGSGTDFTLTISSLQPEDFATYYCQSNFYSDSTTIGPNAFGTGTKVTVLGGGGGSGGGGSGGGGSGGGGSEVQLVESGGGRVQPGGSLRLSCAASGFSFNSDYWIYWVRQAPGKGLEWIASIYGGSSGNTQYASWAQGRFTISRDNSKNTVYLQMNSLRAEDSAVYFCARGYVDYGGATDLWGQGTAVQVSS then?
Response given: 4
